Assign IC50 to each entry below.
Target: KRAS G12S (Homo sapiens (Human), UniProt P01116+P62937, G12S)
Sequence (P01116-2 other isoform, or with tags, fused parts or gaps G12S, one chain of several): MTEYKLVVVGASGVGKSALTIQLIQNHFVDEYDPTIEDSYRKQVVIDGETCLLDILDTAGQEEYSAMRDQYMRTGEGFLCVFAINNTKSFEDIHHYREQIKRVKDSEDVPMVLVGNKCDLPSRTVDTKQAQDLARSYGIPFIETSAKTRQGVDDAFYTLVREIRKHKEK
Test: Ras-Raf (BRAF RBD) disruption / FRET / MOA assay, KRAS G12S
Type: biochemical
Conditions: Ras-Raf disruption/FRET/MOA assay; class symbols; read-out: KRAS G12S FRET data IC50

Example results:
| molecule | assay result |
| --- | --- |
| C=CC(=O)N1CCC(C(=O)N(C)[C@H](C(=O)N[C@H]2CCC(=O)N(C)Cc3ccc4c(c3)c(c(-c3cccnc3[C@H](C)OC)n4CC)CC(C)(C)COC(=O)[C@@H]3CCCN(N3)C2=O)C(C)C)C1 (atropisomer, axis not shown) [Example A500] | > 10000 nM |
| C=CC(=O)N1C[C@H](C)N(C(=O)N(C)[C@H](C(=O)N[C@H]2Cc3nc(cs3)-c3ccc4c(c3)c(c(-c3cccnc3[C@H](C)OC)n4CC)CC(C)(C)COC(=O)[C@@H]3CCCN(N3)C2=O)C(C)C)[C@@H](C)C1 (atropisomer, axis not shown) [Example A386] | 100 to 1000 nM |
| CCn1c(-c2cccnc2[C@H](C)OC)c2c3cc(ccc31)-c1csc(n1)C[C@H](NC(=O)[C@H](C(C)C)N1CCC3(CN(C(=O)C#CC(C)(C)N(C)C)C3)C1=O)C(=O)N1CCC[C@H](N1)C(=O)OCC(C)(C)C2 (atropisomer, axis not shown) [Example A323] | > 10000 nM |

Provide each entry's IC50 from the list below.
1. C=CC(=O)N1CC[C@H](C(=O)N(C)[C@H](C(=O)N[C@H]2Cc3cc(O)cc(c3)-c3ccc4c(c3)c(c(-c3ccc(COC)cc3CN(C)C)n4CC)CC(C)(C)COC(=O)[C@@H]3CCCN(N3)C2=O)C(C)C)C1 [Example A127]
2. CCn1c(-c2cccnc2[C@H](C)OC)c2c3cc(ccc31)-c1csc(n1)C[C@H](NC(=O)[C@@H](COC1CN(C(=O)C#CC(C)(C)N(C)C)C1)C(C)C)C(=O)N1CCC[C@H](N1)C(=O)OCC(C)(C)C2 (atropisomer, axis not shown) [Example A721]
3. C=CC(=O)N(C)C[C@H]1CCN(C(=O)N(C)[C@H](C(=O)N[C@H]2Cc3nc(cs3)-c3ccc4c(c3)c(c(-c3cccnc3[C@H](C)OC)n4CC)CC(C)(C)COC(=O)[C@@H]3CCCN(N3)C2=O)C(C)C)C1 (atropisomer, axis not shown) [Example A653]
4. CCn1c(-c2cccnc2[C@H](C)OC)c2c3cc(ccc31)-c1csc(n1)C[C@H](NC(=O)[C@H](C(C)C)N(C)C(=O)N1CC(N(C)C(=O)/C=C/CN(C)C)C1)C(=O)N1CCC[C@H](N1)C(=O)OCC(C)(C)C2 (atropisomer, axis not shown) [Example A710]
5. C=CC(=O)N1CC[C@H](C(=O)N(C)[C@H](C(=O)N[C@@H]2C(=O)N3CCC[C@H](N3)C(=O)OCC(C)(C)Cc3c(-c4cncnc4)n(CC)c4ccc(cc34)-c3cccc(c3)[C@@H]2OC)C(C)C)C1 [Example A271]

1. 100 to 1000 nM
2. > 10000 nM
3. 100 to 1000 nM
4. 100 to 1000 nM
5. > 10000 nM

----------
Assign IC50 to each entry below.
Target: K-Ras G13C (Homo sapiens (Human), UniProt P01116+P62937, G13C)
Sequence (P01116-2 other isoform, or with tags, fused parts or gaps G13C, one chain of several): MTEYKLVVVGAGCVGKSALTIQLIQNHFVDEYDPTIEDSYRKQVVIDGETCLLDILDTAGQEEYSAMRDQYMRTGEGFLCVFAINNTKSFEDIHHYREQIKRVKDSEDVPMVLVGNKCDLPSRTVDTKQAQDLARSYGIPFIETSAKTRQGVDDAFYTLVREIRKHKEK
Experiment: Ras-Raf (BRAF RBD) disruption / FRET / MOA assay, KRAS G13C
Type: biochemical
Details: KRAS G13C; Ras-Raf disruption/FRET/MOA assay; read-out: IC50* KRAS G13C FRET data
Procedure: The purpose of this biochemical assay is to measure the ability of test compounds to facilitate ternary complex formation between a nucleotide-loaded Ras isoform and cyclophilin A; the resulting ternary complex disrupts binding to a BRAF^RBD construct, inhibiting Ras signaling through a RAF effector. Compound is present in plate wells as a 10-point 3-fold dilution series starting at a final concentration of 30 μM. […]

| compound | IC50 |
| --- | --- |
| C=CC(=O)N1CCO[C@H]2CCN(C(=O)N(C)[C@H](C(=O)N[C@H]3Cc4nc(cs4)-c4ccc5c(c4)c(c(-c4cccnc4[C@H](C)OC)n5CC)CC(C)(C)COC(=O)[C@@H]4CCCN(N4)C3=O)C(C)C)C[C@H]21 (atropisomer, axis not shown) | 100 to 1000 nM |

Turning now to a further record.
Bench note: what IC50 did CO[C@@H](C)c1ncccc1-c1c2c3cc(ccc3n1CC(F)(F)F)N1CCO[C@@H](C[C@H](NC(=O)[C@@H](COC3CN(C(=O)C#CC(C)(C)N(C)C)C3)C(C)C)C(=O)N3CCC[C@H](N3)C(=O)OCC(C)(C)C2)C1 (atropisomer, axis not shown) show?
1000 to 10000 nM

----------
Target: KRAS G13D (Homo sapiens (Human), UniProt P01116+P62937, G13D)
Sequence (P01116-2 other isoform, or with tags, fused parts or gaps G13D): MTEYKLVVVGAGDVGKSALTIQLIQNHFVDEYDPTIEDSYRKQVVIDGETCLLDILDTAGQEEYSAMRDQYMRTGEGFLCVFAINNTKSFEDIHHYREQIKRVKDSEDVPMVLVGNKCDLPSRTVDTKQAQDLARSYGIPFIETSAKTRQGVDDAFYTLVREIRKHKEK
Sequence (P62937 whole entry): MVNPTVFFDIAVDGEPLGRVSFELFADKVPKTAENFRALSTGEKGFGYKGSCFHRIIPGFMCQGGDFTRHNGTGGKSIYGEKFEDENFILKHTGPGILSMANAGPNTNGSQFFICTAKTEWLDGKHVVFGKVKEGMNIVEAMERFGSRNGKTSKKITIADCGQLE
Experiment: Ras-Raf (BRAF RBD) disruption / FRET / MOA assay, KRAS G13D
Format: biochemical
Settings: read-out: IC50* KRAS G13D FRET data
assay metric: IC50

| compound | IC50 |
| --- | --- |
| CCn1c(-c2cccnc2[C@H](C)OC)c2c3cc(ccc31)-c1cccc(c1)C[C@H](NC(=O)[C@H](C(C)C)N(C)C(=O)[C@H]1CCN(C(=O)C#CCN(C)C)C1)C(=O)N1CCC[C@H](N1)C(=O)OCC(C)(C)C2 (atropisomer, axis not shown) | 1 to 10 µM |
| CCn1c(-c2cccnc2[C@H](C)OC)c2c3cc(ccc31)-c1cccc(c1)C[C@H](NC(=O)[C@H](C(C)C)N1CO[C@]3(CCN(C(=O)C#CC(C)(C)N4CCC4)C3)C1=O)C(=O)N1CCC[C@H](N1)C(=O)OCC(C)(C)C2 (atropisomer, axis not shown) | 1 to 10 µM |
| CCn1c(-c2cccnc2[C@H](C)OC)c2c3cc(ccc31)-c1cc(O)cc(c1)C[C@H](NC(=O)[C@H](C(C)C)N(C)C(=O)c1ncc(NC(=O)/C=C/CN(C)C)s1)C(=O)N1CCC[C@H](N1)C(=O)OCC(C)(C)C2 (atropisomer, axis not shown) | 0.1 to 1 µM |

Provide each entry's IC50 from the list below.
1. CO[C@@H](C)c1ncccc1-c1c2c3cc(ccc3n1CC(F)(F)F)-c1cccc(c1)C[C@H](NC(=O)[C@@H](COC1CN(C(=O)C#CC3(C)OCCO3)C1)C(C)C)C(=O)N1CCC[C@H](N1)C(=O)OCC(C)(C)C2 (atropisomer, axis not shown)
2. C=CC(=O)N1CC(F)(C(=O)N(C)[C@H](C(=O)N[C@H]2Cc3cccc(c3)-c3ccc4c(c3)c(c(-c3cccnc3[C@H](C)OC)n4CC)CC(C)(C)COC(=O)[C@@H]3CCCN(N3)C2=O)C(C)C)C1 (atropisomer, axis not shown)
3. C=CC(=O)N1CCOC2(CCN(C(=O)N(C)[C@H](C(=O)N[C@H]3Cc4nc(n(C)n4)-c4ccc5c(c4)c(c(-c4cccnc4[C@H](C)OC)n5CC(F)(F)F)CC(C)(C)COC(=O)[C@@H]4CCCN(N4)C3=O)C(C)C)CC2)C1 (atropisomer, axis not shown)
4. CCn1c(-c2cccnc2[C@H](C)OC)c2c3cc(ccc31)-c1cc(O)cc(c1)C[C@H](NC(=O)[C@H](C(C)C)N1CCC3(CCN(C(=O)/C=C/CN(C)C)CC3)C1=O)C(=O)N1CCC[C@H](N1)C(=O)OCC(C)(C)C2 (atropisomer, axis not shown)

> 10 µM
1 to 10 µM
0.1 to 1 µM
0.01 to 0.1 µM

----------
Target: K-Ras G12C (Homo sapiens (Human), UniProt P01116+P62937, G12C)
Sequence (P01116-2 other isoform, or with tags, fused parts or gaps G12C): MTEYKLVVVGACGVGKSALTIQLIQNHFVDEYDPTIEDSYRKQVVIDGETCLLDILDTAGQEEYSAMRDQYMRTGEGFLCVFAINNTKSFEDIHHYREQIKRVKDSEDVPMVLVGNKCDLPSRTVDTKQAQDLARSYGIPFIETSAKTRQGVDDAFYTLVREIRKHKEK
Sequence (P62937 whole entry): as the sequence (P62937 whole entry) above
Assay: Ras-Raf (BRAF RBD) disruption / FRET / MOA assay, KRAS G12C
Assay type: biochemical
Conditions: KRAS G12C; Ras-Raf disruption/FRET/MOA assay; read-out: IC50* KRAS G12C FRET data
pIC50: −log10 of the molar value.
Assign pIC50 to each entry below.

| molecule | pIC50 |
| --- | --- |
| C=CC(=O)N1CCOC2(CCN(C(=O)N(C)[C@H](C(=O)N[C@H]3Cc4nc(cs4)-c4ccc5c(c4)c(c(-c4cccnc4[C@H](C)OC)n5CC)CC(C)(C)COC(=O)[C@@H]4CCCN(N4)C3=O)C(C)C)CC2)C1 (atropisomer, axis not shown) | 6.00 to 7.00 |

Provide each entry's pIC50 from the list below.
1. CCn1c(-c2cccnc2[C@H](C)OC)c2c3cc(ccc31)-c1cccc(c1)C[C@H](NC(=O)[C@H](C(C)C)N(C)C(=O)C1(F)CCN(C(=O)/C=C/CN(C)C)CC1)C(=O)N1CCC[C@H](N1)C(=O)OCC(C)(C)C2 (atropisomer, axis not shown)
2. C=CC(=O)N(C)[C@H]1CN(C(=O)N(C)[C@H](C(=O)N[C@H]2Cc3nc(cs3)-c3ccc4c(c3)c(c(-c3cccnc3[C@H](C)OC)n4CC)CC(C)(C)COC(=O)[C@@H]3CCCN(N3)C2=O)C(C)C)C[C@H]1F (atropisomer, axis not shown)
3. C=CC(=O)N1CC[C@H](C(=O)N(C)[C@H](C(=O)N[C@H]2Cc3cccc(c3)-c3ccc4c(c3)c(c(-c3cccnc3[C@H](C)OC)n4CC(F)F)CC(C)(C)COC(=O)[C@@H]3CCCN(N3)C2=O)C(C)C)C1 (atropisomer, axis not shown)

1: 7.00 to 8.00; 2: 6.00 to 7.00; 3: 6.00 to 7.00
